Reported kd Human values for a set of molecules
# MEASUREMENT TARGET: T1, hBCMA (human BCMA) (Homo sapiens, UniProt Q02223)
# T1 sequence (Q02223 1-184): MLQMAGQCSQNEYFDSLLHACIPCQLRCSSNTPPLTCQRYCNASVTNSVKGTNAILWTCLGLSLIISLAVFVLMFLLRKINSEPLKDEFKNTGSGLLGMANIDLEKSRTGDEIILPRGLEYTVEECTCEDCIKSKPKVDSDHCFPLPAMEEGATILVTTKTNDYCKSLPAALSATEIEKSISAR
# PROTOCOL: Kinetics and affinity of hBCMA/human IgG interactions by SPR (Bio-Rad Proteon XPR36)
# Format: binding
# TEST PARAMETERS: human BCMA, 37° C.
Numeric only. Scale: s⁻¹

// solved cases for kd Human follow
COMBO_Rd4_6 nM_C09: anti-BCMA antibody (antibody, V domains shown) VH: EVQLLESGGGLVQPGGSLRLSCAASGFTFSSYPMSWVRQAPGKGLEWVSAIFASGGSTYYADSVKGRFTISRDNSKNTLYLQMNSLRAEDTAVYYCARYWPMDSWGQGTLVTVSS VL: EIVLTQSPGTLSLSPGERATLSCRASQSVSAQYLAWYQQKPGQAPRLLMYDASIRATGIPDRFSGSGSGTDFTLTISRLEPEDFAVYYCQQYQAWPLTFGQGTKVEIK : 0.000143
C01_Rd4_6 nM_C24: anti-BCMA antibody (antibody, V domains shown) VH: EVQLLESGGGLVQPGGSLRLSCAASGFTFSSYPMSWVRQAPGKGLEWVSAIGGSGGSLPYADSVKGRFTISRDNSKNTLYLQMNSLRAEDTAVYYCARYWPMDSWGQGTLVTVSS VL: EIVLTQSPGTLSLSPGERATLSCRASQSVSPEYLAWYQQKPGQAPRLLIYDASSRAPGIPDRFSGSGSGTDFTLTISRLEPEDFAVYYCQQYSVWPLTFGQGTKVEIK : 0.00348
COMBO_Rd4_0.6 nM_C09: anti-BCMA antibody (antibody, V domains shown) VH: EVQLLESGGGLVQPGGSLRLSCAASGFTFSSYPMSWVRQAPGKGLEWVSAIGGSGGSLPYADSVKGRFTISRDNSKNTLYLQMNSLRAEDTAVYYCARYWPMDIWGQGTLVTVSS VL: EIVLTQSPGTLSLSPGERATLSCRASQSVSSTYLAWYQQKPGQAPRLLMYDASIRATGIPDRFSGSGSGTDFTLTISRLEPEDFAVYYCQQYQEWPLTFGQGTKVEIK : 0.000319

Q) Which kd Human is reported for this molecule? COMBO_Rd4_6 nM_C22: anti-BCMA antibody (antibody, V domains shown) VH: EVQLLESGGGLVQPGGSLRLSCAASGFTFSSYAMNWVRQAPGKGLEWVSACLDSGGSTYYADSVKGRFTISRDNSKNTLYLQMNSLRAEDTAVYYCARYWPMDSWGQGTLVTVSS VL: EIVLTQSPGTLSLSPGERATLSCRASQSVSSSYLAWYQQKPGQAPRLLMYDASIRATGIPDRFSGSGSGTDFTLTISRLEPEDFAVYYCQQYQGWPLTFGQGTKVEIK
A) 0.000775
